Form field: half-life at 20 μM (one value per entry).
experiment: in vitro; details: human, 20% fecal homogenate (supernatant), anaerobic, pH 6.8
Bridge positions count the residues as written; N and C are the ends. Square brackets hold non-standard residues; d marks the D form. Peptide text beside a SMILES is read from it. Trp(7-Me) = Cc1cccc2c(C[C@H](N)C(=O)O)c[nH]c12; 2Nal = N[C@@H](Cc1ccc2ccccc2c1)C(=O)O; AEF = NCCOc1ccc(C[C@H](N)C(=O)O)cc1; Cit = NC(=O)NCCC[C@H](N)C(=O)O; Pen = CC(C)(S)[C@H](N)C(=O)O; αMeK = C[C@](N)(CCCCN)C(=O)O

compound	quantity	result
CC(=O)NCCCC[C@H](NC(=O)[C@](C)(CCCCN)NC(=O)[C@H](Cc1ccc2ccccc2c1)NC(=O)[C@H](Cc1ccc(OCCN)cc1)NC(=O)[C@H]1NC(=O)[C@H](CCCNC(N)=O)NC(=O)[C@H](Cc2c[nH]c3c(C)cccc23)NC(=O)[C@H]([C@@H](C)O)NC(=O)[C@H](CC(N)=O)NC(=O)[C@@H](NC(C)=O)C(C)(C)SSC1(C)C)C(=O)N[C@@H](CC(N)=O)C(=O)N[C@H](Cc1ccccc1)C(N)=O [compound 257] (Ac-[Pen]NT[Trp(7-Me)][Cit][Pen][AEF][2Nal][αMeK]K(Ac)N[dF]-NH2; disulfide 1-6)	half-life at 20 μM	> 1440 min

Let us move to another entry and its half-life at 20 μM.
Query: Read off the recorded half-life at 20 μM for CC(=O)NCCCC[C@@H]1NC(=O)[C@H](Cc2c[nH]c3c(C)cccc23)NC(=O)[C@H]([C@@H](C)O)NC(=O)[C@H](CC(N)=O)NC(=O)[C@@H](NC(C)=O)C(C)(C)SSC(C)(C)[C@@H](C(=O)N[C@@H](Cc2ccc(OCCN)cc2)C(=O)N[C@@H](Cc2ccc3ccccc3c2)C(=O)N[C@@](C)(CCCCN)C(=O)N[C@@H](CCCCNC(C)=O)C(=O)N[C@@H](CC(N)=O)C(=O)N[C@H](CC(N)=O)Cc2ccccc2)NC1=O [compound 247]
Response: > 1440 min

----------
Listed here are compounds together with their documented half-life at 20 μM.
test: in vitro; conditions: human, 20% fecal homogenate (supernatant), anaerobic, pH 6.8

molecule.smiles	half-life at 20 μM
CC(=O)NCCCC[C@H](NC(=O)[C@](C)(CC(C)C)NC(=O)[C@H](Cc1ccc2ccccc2c1)NC(=O)[C@H](Cc1ccc(OCCN)cc1)NC(=O)[C@H]1NC(=O)[C@H](CCC(N)=O)NC(=O)[C@H](Cc2c[nH]c3c(C)cccc23)NC(=O)[C@H]([C@@H](C)O)NC(=O)[C@H](CC(N)=O)NC(=O)[C@@H](NC(C)=O)C(C)(C)SSC1(C)C)C(=O)N[C@@H](CC(N)=O)C(=O)N[C@@H](CC(N)=O)C(N)=O	17 h
CC(=O)NCCCC[C@H](NC(=O)[C@](C)(CC(C)C)NC(=O)[C@H](Cc1ccc2ccccc2c1)NC(=O)[C@H](Cc1ccc(OCCN)cc1)NC(=O)[C@H]1NC(=O)[C@H](CCC(N)=O)NC(=O)[C@H](Cc2c[nH]c3c(C)cccc23)NC(=O)[C@H]([C@@H](C)O)NC(=O)[C@H](CC(N)=O)NC(=O)[C@@H](NC(C)=O)C(C)(C)SSC1(C)C)C(=O)N[C@@](C)(CC(C)C)C(=O)NCCC(N)=O	> 24 h
CC(=O)NCCCC[C@@H]1NC(=O)[C@H](Cc2c[nH]c3c(C)cccc23)NC(=O)[C@H]([C@@H](C)O)NC(=O)[C@H](CC(N)=O)NC(=O)[C@@H](NC(C)=O)C(C)(C)SSC(C)(C)[C@@H](C(=O)N[C@@H](Cc2ccc(OCCN)cc2)C(=O)N[C@@H](Cc2ccc3ccccc3c2)C(=O)N[C@@](C)(CCCCN)C(=O)N[C@@H](CCCCNC(C)=O)C(=O)N[C@@H](CC(N)=O)C(=O)N[C@@H](Cc2c[nH]cn2)C(N)=O)NC1=O	> 24 h
CC(=O)NCCCC[C@@H]1NC(=O)[C@H](Cc2c[nH]c3c(C)cccc23)NC(=O)[C@H]([C@@H](C)O)NC(=O)[C@H](CC(N)=O)NC(=O)[C@@H](NC(C)=O)C(C)(C)SSC(C)(C)[C@@H](C(=O)N[C@@H](Cc2ccc(OCCN)cc2)C(=O)N[C@@H](Cc2ccc3ccccc3c2)C(=O)N[C@@](C)(CCCCN)C(=O)N[C@@H](CCCCNC(C)=O)C(=O)N[C@@H](Cc2c[nH]cn2)C(=O)NCCC(N)=O)NC1=O	> 24 h

Okay, next one:
Query: Supply measured half-life at 20 μM of `CC(=O)N[C@@H]1C(=O)N[C@@H](CC(N)=O)C(=O)N[C@@H]([C@@H](C)O)C(=O)N[C@@H](Cc2c[nH]c3c(C)cccc23)C(=O)N[C@@H](CCC(N)=O)C(=O)N[C@H](C(=O)N[C@@H](Cc2ccc(OCCN)cc2)C(=O)N[C@@H](Cc2ccc3ccccc3c2)C(=O)N[C@@](C)(CCCCN)C(=O)NC(C)(C)C(=O)N[C@@H](CC(N)=O)C(=O)NCCC(N)=O)C(C)(C)SSC1(C)C` in your reply.
Response: > 24 h

----------
target: IL-23R (Homo sapiens, UniProt Q5VWK5); test: DB cells IL23R pSTAT3 cell assay (pStat3 HTRF); type: cell-based; conditions: Table E3; DB cells, IL-23 0.5 nM, 30 minutes at 37° C.; read-out: pStat3 HTRF (IC50)
Sequence (Q5VWK5 24-629): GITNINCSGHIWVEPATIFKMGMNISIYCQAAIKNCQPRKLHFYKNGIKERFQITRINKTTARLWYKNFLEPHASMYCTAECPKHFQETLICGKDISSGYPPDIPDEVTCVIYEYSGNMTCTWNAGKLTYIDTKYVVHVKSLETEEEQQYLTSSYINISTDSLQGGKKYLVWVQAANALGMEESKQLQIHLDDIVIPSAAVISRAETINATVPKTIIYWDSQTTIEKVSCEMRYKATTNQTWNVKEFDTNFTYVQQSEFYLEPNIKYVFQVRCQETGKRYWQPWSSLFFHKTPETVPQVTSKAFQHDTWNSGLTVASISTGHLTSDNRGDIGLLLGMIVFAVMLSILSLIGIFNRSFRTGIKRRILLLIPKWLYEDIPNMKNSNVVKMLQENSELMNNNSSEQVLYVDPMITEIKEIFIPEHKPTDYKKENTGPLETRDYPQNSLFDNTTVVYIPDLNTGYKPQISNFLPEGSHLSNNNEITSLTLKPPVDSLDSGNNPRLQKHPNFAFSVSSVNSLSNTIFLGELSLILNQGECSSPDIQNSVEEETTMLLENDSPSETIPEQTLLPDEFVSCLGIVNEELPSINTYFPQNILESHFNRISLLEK
pIC50: −log10 of the molar value.
Catalogue of pIC50 values

molecule.smiles	pIC50
CC(=O)NCCCC[C@H](NC(=O)[C@](C)(CC(C)C)NC(=O)[C@H](Cc1ccc2ccccc2c1)NC(=O)[C@H](Cc1ccc(OCCN)cc1)NC(=O)[C@H]1NC(=O)[C@H](CCC(N)=O)NC(=O)[C@H](Cc2c[nH]c3c(C)cccc23)NC(=O)[C@H]([C@@H](C)O)NC(=O)[C@H](CC(N)=O)NC(=O)[C@@H](NC(C)=O)C(C)(C)SSC1(C)C)C(=O)N[C@@H](CC(N)=O)C(=O)NCCC(N)=O	> 9.00

Query: Give IL-23R (Homo sapiens, UniProt Q5VWK5) pIC50 for the following compound: `CC(=O)NCCCC[C@H](NC(=O)[C@](C)(CC(C)C)NC(=O)[C@H](Cc1ccc2ccccc2c1)NC(=O)[C@H](Cc1ccc(OCCN)cc1)NC(=O)[C@H]1NC(=O)[C@H](CCC(N)=O)NC(=O)[C@H](Cc2c[nH]c3c(C)cccc23)NC(=O)[C@H]([C@@H](C)O)NC(=O)[C@H](CC(N)=O)NC(=O)[C@@H](NC(C)=O)C(C)(C)SSC1(C)C)C(=O)N(C)[C@@H](C)C(=O)NCCC(N)=O`
Response: < 7.00

----------
test: in vitro; conditions: both, SD, rat, plasma
quantity: half-life
Record the result as a number with its unit.

Query: Supply half-life value. Item: `CC(=O)NCCCC[C@H](NC(=O)[C@](C)(CC(C)C)NC(=O)[C@H](Cc1ccc2ccccc2c1)NC(=O)[C@H](Cc1ccc(OCCN)cc1)NC(=O)[C@H]1NC(=O)[C@H](CCC(N)=O)NC(=O)[C@H](Cc2c[nH]c3c(C)cccc23)NC(=O)[C@H]([C@@H](C)O)NC(=O)[C@H](CC(N)=O)NC(=O)[C@@H](NC(C)=O)C(C)(C)SSC1(C)C)C(=O)N[C@H](Cc1c[nH]cn1)C(=O)NCCC(N)=O`
Response: 2 h

----------
Consider the following compounds and their measured half-life at 20 μM readings.
assay: in vitro; settings: cynomolgus monkey, 20% fecal homogenate (supernatant), anaerobic, pH 6.8

Worked set:
molecule.smiles	result
CC(=O)NCCCC[C@H](NC(=O)[C@](C)(CCCCN)NC(=O)[C@H](Cc1ccc2ccccc2c1)NC(=O)[C@H](Cc1ccc(OCCN)cc1)NC(=O)[C@H]1NC(=O)[C@H](CCC(N)=O)NC(=O)[C@H](Cc2cn(C)c3ccccc23)NC(=O)[C@H]([C@@H](C)O)NC(=O)[C@H](CC(N)=O)NC(=O)[C@@H](NC(C)=O)C(C)(C)SSC1(C)C)C(=O)N[C@@H](CC(N)=O)C(=O)NCCC(N)=O	10 h
CC(=O)NCCCC[C@H](NC(=O)[C@](C)(CC(C)C)NC(=O)[C@H](Cc1ccc2ccccc2c1)NC(=O)[C@H](Cc1ccc(OCCN)cc1)NC(=O)[C@H]1NC(=O)[C@H](CCC(N)=O)NC(=O)[C@H](Cc2c[nH]c3c(C)cccc23)NC(=O)[C@H]([C@@H](C)O)NC(=O)[C@H](CC(N)=O)NC(=O)[C@@H](NC(C)=O)C(C)(C)SSC1(C)C)C(=O)NCCC(=O)NCCC(N)=O	> 24 h

Consider the record given below.
Query: Report measured half-life at 20 μM; entry is `CC(=O)NCCCC[C@H](NC(=O)[C@](C)(CC(C)C)NC(=O)[C@H](Cc1ccc2ccccc2c1)NC(=O)[C@H](Cc1ccc(OCCN)cc1)NC(=O)[C@H]1NC(=O)[C@H](CCC(N)=O)NC(=O)[C@H](Cc2c[nH]c3c(C)cccc23)NC(=O)[C@H]([C@@H](C)O)NC(=O)[C@H](CC(N)=O)NC(=O)[C@@H](NC(C)=O)C(C)(C)SSC1(C)C)C(=O)N1CCC[C@@H]1C(=O)NCCC(N)=O`
Response: > 24 h

Hello, the source for this data is patent US20260116921A1, in case you need it.
